tested on: Enterobacter cloacae; assay: Inhibition zone assay (agar plate); type: cell-based; settings: agar plate, 50 nanomoles/well, 3 mm wells
Residues, ends and D or L forms follow the SMILES beside them.
endpoint label: inhibition zone diameter (number of plus signs)

1. CC[C@H](C)[C@H](NC(=O)[C@@H]1CCCN1C(=O)[C@H](C)NC(=O)[C@@H]1CCCN1C(=O)[C@H](CCCNC(=N)N)NC(=O)[C@@H]1CCCN1C(=O)[C@H](CCCCN)NC(=O)[C@@H](N)CC(N)=O)C(=O)N[C@@H](CCCCN)C(=O)N1CCC[C@H]1C(=O)N[C@@H](CCCNC(=N)N)C(=O)N1CCC[C@H]1C(=O)N1CCC[C@H]1C(=O)N[C@@H](Cc1c[nH]cn1)C(=O)N1CCC[C@H]1C(=O)N[C@@H](CCCNC(=N)N)C(=O)N[C@@H](CC(C)C)C(=O)O [Cd 2-] (H-NKPRPAPIKPRPPHPRL-OH) = +++ ((+++) 10-14 mm)
2. CC(C)C[C@H](NC(=O)[C@H](CCCNC(=N)N)NC(=O)[C@@H]1CCCN1C(=O)[C@H](Cc1c[nH]cn1)NC(=O)[C@@H]1CCCN1C(=O)[C@@H]1CCCN1C(=O)[C@H](CCCNC(=N)N)NC(=O)[C@@H]1CCCN1C(=O)[C@@H]1CCCN1C(=O)[C@@H](NC(=O)[C@H](CCC(N)=O)NC(=O)[C@H](CCC(N)=O)NC(=O)[C@@H]1CCCN1C(=O)[C@H](CCCNC(=N)N)NC(=O)[C@@H]1CCCN1C(=O)[C@H](CCCCN)NC(=O)CN)C(C)C)C(=O)O [Ho +, G K P R P Q Q V P P R P P H P R L] (H-GKPRPQQVPPRPPHPRL-OH) = +++ ((+++) 10-14 mm)
3. CC[C@H](C)[C@H](NC(=O)[C@@H]1CCCN1C(=O)[C@H](C)NC(=O)[C@@H]1CCCN1C(=O)[C@H](CCCNC(=N)N)NC(=O)[C@@H]1CCCN1C(=O)[C@H](CCCCN)NC(=O)[C@@H](N)CO)C(=O)N[C@@H](CCCCN)C(=O)N1CCC[C@H]1C(=O)N[C@@H](CCCNC(=N)N)C(=O)N1CCC[C@H]1C(=O)N1CCC[C@H]1C(=O)N[C@@H](Cc1c[nH]cn1)C(=O)N1CCC[C@H]1C(=O)N[C@@H](CCCNC(=N)N)C(=O)N[C@@H](CC(C)C)C(=O)O [Cd 3-] (H-SKPRPAPIKPRPPHPRL-OH) = +++ ((+++) 10-14 mm)
